Reported upper right quadrant, percent of cells AF647+ / hTcRβ-PerCP+ is given for each of the following binders.
target: T1, human CD3e (T-cell surface glycoprotein CD3 epsilon chain) (human, UniProt P07766 23-207); assay: flow cytometry, human PBMC, antibody 1 µg/mL, anti-human IgG Fc-Alexa Fluor647 (1:500), anti-hTcRβ-PerCP (1:30)
T1 construct: Target of the anti-hCD3e antibodies on human PBMC, Jurkat cells and cells expressing human CD3e; on T cells it is part of the CD3/TCR complex; also called hCD3e; CD3e on human PBMC
The reply should be a number in %, with the unit left off.

Some entries whose results are on file:
1B1-H4K2-IgG1-LALA (antibody, V domains shown, Humanized; human IgG1 with LALA mutations; also called H4K2 (humanized 1B1)) VH: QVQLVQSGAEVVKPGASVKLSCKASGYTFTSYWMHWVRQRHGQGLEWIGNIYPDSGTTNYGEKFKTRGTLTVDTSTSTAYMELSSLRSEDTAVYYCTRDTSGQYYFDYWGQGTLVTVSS VL: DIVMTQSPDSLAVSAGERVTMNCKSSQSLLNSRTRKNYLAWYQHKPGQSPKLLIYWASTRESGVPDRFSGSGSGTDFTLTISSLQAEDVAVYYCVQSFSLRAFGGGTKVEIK    61.7
1B1-H2K2-IgG1-LALA (antibody, V domains shown, Humanized; human IgG1 with LALA mutations; also called H2K2 (humanized 1B1)) VH: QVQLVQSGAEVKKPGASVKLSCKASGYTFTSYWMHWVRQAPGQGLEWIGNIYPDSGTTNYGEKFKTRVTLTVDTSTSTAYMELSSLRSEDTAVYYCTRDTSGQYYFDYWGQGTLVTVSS VL: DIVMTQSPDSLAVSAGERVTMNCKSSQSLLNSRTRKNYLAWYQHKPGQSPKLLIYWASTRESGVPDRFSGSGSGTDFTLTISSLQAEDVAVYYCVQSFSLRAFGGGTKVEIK    61
1B1-H3K2-IgG1-LALA (antibody, V domains shown, Humanized; human IgG1 with LALA mutations; also called H3K2 (humanized 1B1)) VH: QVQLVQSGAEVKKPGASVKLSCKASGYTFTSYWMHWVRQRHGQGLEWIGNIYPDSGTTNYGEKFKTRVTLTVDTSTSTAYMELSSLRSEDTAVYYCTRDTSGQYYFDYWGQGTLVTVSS VL: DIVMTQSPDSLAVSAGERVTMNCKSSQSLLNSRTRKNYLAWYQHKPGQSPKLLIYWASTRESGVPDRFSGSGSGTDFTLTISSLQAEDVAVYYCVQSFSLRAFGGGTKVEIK    58.1
1B1-H2K3-IgG1-LALA (antibody, V domains shown, Humanized; human IgG1 with LALA mutations; also called H2K3 (humanized 1B1)) VH: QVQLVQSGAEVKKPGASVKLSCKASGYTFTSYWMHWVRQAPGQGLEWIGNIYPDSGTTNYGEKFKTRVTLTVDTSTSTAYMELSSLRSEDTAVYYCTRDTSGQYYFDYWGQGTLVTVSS VL: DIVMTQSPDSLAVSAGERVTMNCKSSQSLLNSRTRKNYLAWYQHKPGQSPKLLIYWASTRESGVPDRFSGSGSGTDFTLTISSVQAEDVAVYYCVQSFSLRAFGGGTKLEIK    60.6

Recorded upper right quadrant, percent of cells AF647+ / hTcRβ-PerCP+ for 1B1-H3K3-IgG1-LALA (antibody, V domains shown, Humanized; human IgG1 with LALA mutations; also called H3K3 (humanized 1B1)) VH: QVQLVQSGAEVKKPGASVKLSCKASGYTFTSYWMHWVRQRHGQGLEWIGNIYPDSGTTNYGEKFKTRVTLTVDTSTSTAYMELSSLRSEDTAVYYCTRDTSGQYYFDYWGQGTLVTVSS VL: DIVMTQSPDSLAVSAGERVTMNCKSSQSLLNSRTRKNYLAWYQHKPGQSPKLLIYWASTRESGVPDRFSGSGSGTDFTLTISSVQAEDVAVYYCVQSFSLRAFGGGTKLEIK , please? 58.1

Recorded upper right quadrant, percent of cells AF647+ / hTcRβ-PerCP+ for 1B1-H1K3-IgG1-LALA (antibody, V domains shown, Humanized; human IgG1 with LALA mutations; also called H1K3 (humanized 1B1)) VH: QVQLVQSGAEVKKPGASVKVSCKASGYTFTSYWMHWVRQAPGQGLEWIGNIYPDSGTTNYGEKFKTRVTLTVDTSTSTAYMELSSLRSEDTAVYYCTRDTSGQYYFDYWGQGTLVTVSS VL: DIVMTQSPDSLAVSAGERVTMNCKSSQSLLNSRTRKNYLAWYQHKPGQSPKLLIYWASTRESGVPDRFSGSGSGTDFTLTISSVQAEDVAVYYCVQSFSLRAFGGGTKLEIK , please? 58.6

Recorded upper right quadrant, percent of cells AF647+ / hTcRβ-PerCP+ for 1B1-H2K1-IgG1-LALA (antibody, V domains shown, Humanized; human IgG1 with LALA mutations; also called H2K1 (humanized 1B1)) VH: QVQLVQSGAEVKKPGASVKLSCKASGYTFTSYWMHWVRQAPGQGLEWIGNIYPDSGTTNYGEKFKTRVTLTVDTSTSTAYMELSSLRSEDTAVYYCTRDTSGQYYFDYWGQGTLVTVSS VL: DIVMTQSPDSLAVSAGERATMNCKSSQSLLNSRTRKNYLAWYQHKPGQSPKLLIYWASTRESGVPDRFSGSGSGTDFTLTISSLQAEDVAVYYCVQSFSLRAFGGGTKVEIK , please? 61.5
